# Tested on: Staphylococcus sp.
# PROTOCOL: In vitro antibacterial evaluation: minimum inhibitory concentration (MIC), broth dilution method
# Assay type: cell-based
# MEASUREMENT PARAMETERS: Staphylococcus aureus-SMITH (GC 4543); 18 hours at 35° C.
Numbered stars: 1 amine (or outer) side, 2 acyl side, 3 side chain; on linkers, the order of the positions; unused ones are H or OH. Square brackets hold non-standard residues; d marks the D form. Peptide text beside a SMILES is read from it. ξ: configuration not given here. X3 = CC1(C)OCC2OC(N3C(=N)NCC3C(O)C(N[*:1])C(=O)[*:2])C3OC(C)(C)OC3C2O1; X1 = N=C1NCC(C(O)C(N[*:1])C(=O)[*:2])N1C1OC(CO)C(O)C(O)C1O; ξEnduracididine(βξ-OH,4'ξ) = N=C1NCC(C(O)C(N)C(=O)O)N1; ξPhe(βξ-Me) = CC(c1ccccc1)C(N)C(=O)O
PROPERTY MEASURED: MIC Staphylococcus aureus-SMITH (GC 4543)

COMPOUND	ASSAY VALUE
COc1ccc2cc(COC3C(CO)OC(OC4C(CO)OC(Oc5ccc(CC6NC(=O)C(C(C)c7ccccc7)NC(=O)CNC(=O)C(CO)NC(=O)C(CC7CNC(=N)N7C7OC(CO)C(O)C(O)C7O)NC(=O)C(CC7CNC(=N)N7)NC6=O)cc5)C(O)C4O)C(O)C3O)ccc2c1 (stereo not shown) [Example 245a]	2 mg/L

Report measured MIC Staphylococcus aureus-SMITH (GC 4543); entry is CC(c1ccccc1)C1NC(=O)CNC(=O)C(CO)NC(=O)C(C(O)C2CNC(=N)N2C2OC3COC(C)(C)OC3C3OC(C)(C)OC32)NC(=O)C(C(O)C2CNC(=N)N2)NC(=O)C(Cc2ccc(O)cc2)NC1=O (stereo not drawn) [Example 247] (cyclo(G[ξPhe(βξ-Me)]Y[ξEnduracididine(βξ-OH,4'ξ)][X3]S); configuration not given here)
>64 mg/L

Report measured MIC Staphylococcus aureus-SMITH (GC 4543); entry is N=C1NCC(C(O)C2NC(=O)C(Cc3ccc(O)cc3)NC(=O)C(Cc3ccccc3)NC(=O)CNC(=O)C(CO)NC(=O)C(C(O)C3CNC(=N)N3C3OC(CO)C(O)C(O)C3O)NC2=O)N1 (stereo not drawn) [Example 279a] (cyclo(GFY[ξEnduracididine(βξ-OH,4'ξ)][X1]S); configuration not given here)
>64 mg/L

Cited source: patent US8247211B2
